Tested on: 276233-004-R-J1-PDC KRAS spheroids with HUVEC/MSC, viability;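 also: cells exposed to agents for seven days before viability read; 100% = DMSO vehicle control wells and lower values mean fewer viable cells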
Assay procedure: Anticancer human tumor 276233-004-R-J1-PDC patient-derived colon adenocarcinoma cell line growth inhibition [KRAS2]
Test conditions: second compound 3.16 µM; first compound 0.1 µM; stronger effect = lower value
Readout kind: viability, T/C (%)
Response body: numeric value in %, unit text excluded.

CC1COCCN1c1cc(-c2ccnn2C)c2ccnc(-c3ccn[nH]3)c2n1 (stereo not given) + CNCc1ccccc1-c1csc(C(C)Nc2nc(C)nc3cc(OC)c(OC)cc23)c1 = 1.38
Cn1nccc1Nc1nccc(-c2cc3c(s2)C(C)(C)N(CCN2CCOCC2)C3=O)n1 + CC1OCC2(CCN(c3cnc(Sc4ccnc(N)c4Cl)c(N)n3)CC2)C1N = 62.3
Cn1ncnc1[C@H]1c2n[nH]c(=O)c3cc(F)cc(c23)N[C@@H]1c1ccc(F)cc1 + CC1OCC2(CCN(c3cnc(Sc4ccnc(N)c4Cl)c(N)n3)CC2)C1N = 62.9
CC1(C)CCC(CN2CCN(c3ccc(C(=O)NS(=O)(=O)c4ccc(NCC5CCOCC5)c([N+](=O)[O-])c4)c(Oc4cnc5[nH]ccc5c4)c3)CC2)=C(c2ccc(Cl)cc2)C1 + C=CC(=O)N1CCN(c2nc(=O)n(-c3c(C)ccnc3C(C)C)c3nc(-c4c(O)cccc4F)c(F)cc23)C(C)C1 = 96.9

Enquiry: Please look at this compound and report its viability, T/C: CCNC(=O)CC1N=C(c2ccc(Cl)cc2)c2cc(OC)ccc2-n2c(C)nnc21 (stereo not given) + CNCc1ccccc1-c1csc(C(C)Nc2nc(C)nc3cc(OC)c(OC)cc23)c1
Return: 0.86
